Target: human ether-à-go-go-related gene (hERG) potassium channel (human);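 also: peak tail current of the secondary pulse compared with the same well before compound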
Assay: primary screen, population patch clamp on CHO cells stably expressing hERG; higher = less effect of the substance
Description: Briefly, Chinese hamster ovary (CHO) cells stably expressing the hERG channel were dislodged from tissue culture flasks and dispensed into PPC plates. […] During the recording, background leak currents were estimated by a 100 ms step to -80 mV from an initial holding potential of -70 mV and subtracted from the subsequent current measurement. The campaign was conducted in two phases using slight differences in recording protocol. […]
The campaign covered roughly 310,000 compounds. About 14,000 (4.5%) showed an effect of 50% or more. Effects have a minus sign here. The full list was thinned out, with strong results kept by preference.
Kindly supply the reported hERG current change (%, negative = inhibition) at 10uM values for the records listed here.
Answers are plain numbers, in %.

Give hERG current change (%, negative = inhibition) at 10uM for each of the items listed below.
1. COc1ccccc1NC(=O)CSc1nnc(Cn2c(=O)sc3ccccc32)n1C
2. O=C(NCCCO)C(=O)NCC1OCCCN1S(=O)(=O)c1cccs1 (stereo not shown)
3. O=[N+]([O-])/C=C/c1ccc2c(ccn2Cc2ccccc2)c1
4. O=C(O)CCSc1nnc(COc2ccc([N+](=O)[O-])cc2)n1-c1ccccc1
5. CCOC(=O)C1=C(C)NC(=O)C(C(N)=O)C1c1ccccc1 (stereo not shown)
6. CCOc1ccc(NC(=O)CSc2nnc(Cn3c(=O)sc4ccccc43)n2C)cc1
7. CCOC(=O)CNC(=O)CSc1nnc(-c2ccco2)n1Cc1ccco1
8. CCOc1ccccc1NC(=O)CSc1nnc(-c2ccco2)n1Cc1ccco1

Out:
1. -44
2. -10.6
3. 15.8
4. 22.8
5. 5.2
6. -4.3
7. 10.4
8. -63.4

Give hERG current change (%, negative = inhibition) at 10uM for each of the items listed below.
1. COCCn1c(SCC(=O)Nc2ccccc2OC)nnc1-c1ccco1
2. COc1ccccc1NC(=O)CSc1nnc(-c2ccco2)n1N

Out:
[-13.6, -3.82]

----------
biological target: human ether-à-go-go-related gene (hERG) potassium channel (human, UniProt Q12809); assay: primary screen, population patch clamp on CHO cells stably expressing hERG; higher = less effect of the substance;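 also: peak tail current of the secondary pulse compared with the same well before compound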
Sequence (Q12809 whole entry, looked up): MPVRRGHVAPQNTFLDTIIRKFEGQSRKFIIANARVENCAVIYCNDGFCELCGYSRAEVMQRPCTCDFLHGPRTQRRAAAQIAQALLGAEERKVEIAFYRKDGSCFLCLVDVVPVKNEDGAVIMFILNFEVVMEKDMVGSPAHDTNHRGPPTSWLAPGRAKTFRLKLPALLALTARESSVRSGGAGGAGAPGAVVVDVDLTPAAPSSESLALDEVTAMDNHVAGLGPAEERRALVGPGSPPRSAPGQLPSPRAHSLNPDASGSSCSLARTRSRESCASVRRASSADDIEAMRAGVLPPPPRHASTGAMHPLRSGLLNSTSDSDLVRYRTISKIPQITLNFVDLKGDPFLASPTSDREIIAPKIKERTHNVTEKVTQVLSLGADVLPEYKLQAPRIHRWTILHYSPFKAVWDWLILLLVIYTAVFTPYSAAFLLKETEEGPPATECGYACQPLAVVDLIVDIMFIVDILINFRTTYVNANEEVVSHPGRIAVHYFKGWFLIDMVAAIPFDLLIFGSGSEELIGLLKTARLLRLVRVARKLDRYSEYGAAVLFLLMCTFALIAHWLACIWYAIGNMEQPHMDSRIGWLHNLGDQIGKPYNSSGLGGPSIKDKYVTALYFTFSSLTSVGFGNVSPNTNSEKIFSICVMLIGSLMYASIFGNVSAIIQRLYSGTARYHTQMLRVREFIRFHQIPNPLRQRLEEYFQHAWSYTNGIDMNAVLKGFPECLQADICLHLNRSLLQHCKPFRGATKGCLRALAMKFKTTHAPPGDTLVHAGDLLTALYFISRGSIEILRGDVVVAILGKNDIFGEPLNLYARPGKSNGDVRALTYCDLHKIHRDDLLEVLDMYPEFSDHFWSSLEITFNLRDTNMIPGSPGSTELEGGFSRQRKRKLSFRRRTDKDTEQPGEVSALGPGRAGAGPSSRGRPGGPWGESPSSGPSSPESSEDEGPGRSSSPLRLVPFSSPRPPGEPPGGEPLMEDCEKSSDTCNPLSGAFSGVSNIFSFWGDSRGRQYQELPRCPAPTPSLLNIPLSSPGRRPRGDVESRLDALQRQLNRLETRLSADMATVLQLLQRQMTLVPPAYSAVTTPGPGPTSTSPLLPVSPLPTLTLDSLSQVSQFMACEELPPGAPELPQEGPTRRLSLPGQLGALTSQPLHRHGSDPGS
About 14,000 (4.5%) of roughly 310,000 compounds showed an effect of 50% or more. The effect is printed as a negative number. For the sample, strong results were picked, then their nearest neighbours and some compounds at random.
Test Readout: hERG current change (%, negative = inhibition) at 10uM (%)
Answers are plain numbers, in %.

Recorded results for 5 compounds are shown here.
compound="Cc1ccc(C2Oc3ccccc3C3=C2C(c2cccs2)n2ncnc2N3)cc1 (stereo not drawn)" target_under_test="human ether-à-go-go-related gene (hERG) potassium channel (human, UniProt Q12809)" result=-7.55
compound=Cc1sc(NC(=O)CSc2nnc(C(C)C)n2C)c(C#N)c1C target_under_test="human ether-à-go-go-related gene (hERG) potassium channel (human, UniProt Q12809)" result=-1.79
compound=CC(=O)c1ccc(NC(=O)c2cnn3c(C(F)F)cc(C4CC4)nc23)cc1 target_under_test="human ether-à-go-go-related gene (hERG) potassium channel (human, UniProt Q12809)" result=11.1
compound=Cc1cc(C(C)(C)C)ccc1OCCOCCN1CCCC1 target_under_test="human ether-à-go-go-related gene (hERG) potassium channel (human, UniProt Q12809)" result=-44.5
compound="O=C(NCCCO)C(=O)NCC(c1ccc2c(c1)OCO2)N1CCN(c2ccc(F)cc2)CC1 (stereo not drawn)" target_under_test="human ether-à-go-go-related gene (hERG) potassium channel (human, UniProt Q12809)" result=-41.4

Give hERG current change (%, negative = inhibition) at 10uM for each of the items listed below.
1. Cc1ccc(-c2nnc(SCC(=O)Nc3sc(C)c(C)c3C#N)n2C)cc1
2. O=[N+]([O-])c1cc(N=Nc2ccc3ccccc3c2)ccc1O
3. COCCn1c(SCC(=O)Nc2sc(C)c(C)c2C#N)nnc1C(C)C
4. CC(C)O.CCc1nnc(NS(=O)(=O)c2ccc(NC(=O)C(c3ccccc3)c3ccccc3)cc2)s1
5. c1csc(C2C3=C(Nc4ncnn42)c2ccccc2OC3)c1 (stereo not drawn)
6. CCOc1ccccc1-c1nc(-c2ccncc2)no1
7. Cc1cc(C(C)(C)C)ccc1OCCN(C)C

Out:
-54.1
12.8
-3.62
2.36
11.4
-15.8
-7.47
